# subject of test: UniProt:P42263
pKi: −log10 of the molar value.
readout name: pKi

Q: Supply reported pKi belonging to this molecule: Cc1cc([C@@H]2CCCN2C)on1
Result: < 5.00

###

# subject of test: UniProt P35523
pKi: −log10 of the molar value.
readout name: pKi

Q: Note pKi for the compound shown: Cc1cc([C@@H]2CCCN2C)on1
Result: < 5.00

###

# subject of test: Gamma-aminobutyric acid receptor subunit alpha-1 (Homo sapiens, UniProt P14867)
# Sequence (P14867 whole entry): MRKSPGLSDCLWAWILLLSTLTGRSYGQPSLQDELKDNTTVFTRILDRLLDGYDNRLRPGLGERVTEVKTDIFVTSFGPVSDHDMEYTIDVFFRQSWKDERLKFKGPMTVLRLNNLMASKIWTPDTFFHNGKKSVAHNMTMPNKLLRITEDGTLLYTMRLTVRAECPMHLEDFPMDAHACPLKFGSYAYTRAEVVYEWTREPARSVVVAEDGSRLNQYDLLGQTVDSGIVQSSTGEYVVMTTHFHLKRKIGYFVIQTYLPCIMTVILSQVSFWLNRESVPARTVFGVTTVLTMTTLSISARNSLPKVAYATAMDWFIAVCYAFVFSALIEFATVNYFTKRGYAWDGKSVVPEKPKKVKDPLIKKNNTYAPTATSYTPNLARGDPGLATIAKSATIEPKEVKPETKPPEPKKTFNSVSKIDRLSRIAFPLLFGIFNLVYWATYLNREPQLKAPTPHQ
readout name: Ki

Q: Retrieve Ki on Gamma-aminobutyric acid receptor subunit alpha-1 (Homo sapiens, UniProt P14867); query Cc1cc([C@@H]2CCCN2C)on1
Result: > 10 µM

###

# subject of test: Substance-K receptor (Bos taurus, UniProt P05363)
# Sequence (P05363 whole entry): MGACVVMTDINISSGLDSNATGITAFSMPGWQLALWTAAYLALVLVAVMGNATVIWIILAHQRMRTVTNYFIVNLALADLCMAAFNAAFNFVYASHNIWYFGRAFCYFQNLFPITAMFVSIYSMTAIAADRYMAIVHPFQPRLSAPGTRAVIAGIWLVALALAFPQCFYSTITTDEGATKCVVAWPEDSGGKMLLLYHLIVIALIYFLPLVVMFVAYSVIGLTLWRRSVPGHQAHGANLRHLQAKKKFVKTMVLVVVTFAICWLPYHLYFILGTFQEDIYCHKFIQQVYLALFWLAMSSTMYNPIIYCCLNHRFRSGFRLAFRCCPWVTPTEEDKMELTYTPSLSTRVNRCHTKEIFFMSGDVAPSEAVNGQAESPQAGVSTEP
readout name: Ki

Q: Give Ki only, for Cc1cc([C@@H]2CCCN2C)on1 , using Substance-K receptor (Bos taurus, UniProt P05363) data.
Result: > 10 µM

###

# subject of test: Adenosine receptor A2a (Homo sapiens)
# Sequence (P29274 whole entry): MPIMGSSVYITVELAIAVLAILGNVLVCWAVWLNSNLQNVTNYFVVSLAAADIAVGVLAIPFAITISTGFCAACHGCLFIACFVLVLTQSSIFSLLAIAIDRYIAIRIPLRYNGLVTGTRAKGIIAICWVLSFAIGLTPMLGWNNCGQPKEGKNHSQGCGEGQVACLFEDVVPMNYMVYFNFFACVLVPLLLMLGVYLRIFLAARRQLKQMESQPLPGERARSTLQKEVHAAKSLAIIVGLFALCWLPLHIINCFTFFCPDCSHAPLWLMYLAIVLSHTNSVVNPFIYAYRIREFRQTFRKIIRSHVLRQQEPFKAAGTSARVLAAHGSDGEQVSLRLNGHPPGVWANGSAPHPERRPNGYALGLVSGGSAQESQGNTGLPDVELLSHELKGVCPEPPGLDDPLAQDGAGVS
pKi: −log10 of the molar value.
readout name: pKi

Q: Identify measured pKi associated with Cc1cc([C@@H]2CCCN2C)on1
Result: < 5.00

###

# subject of test: Substance-P receptor (Homo sapiens)
# Sequence (P25103 whole entry): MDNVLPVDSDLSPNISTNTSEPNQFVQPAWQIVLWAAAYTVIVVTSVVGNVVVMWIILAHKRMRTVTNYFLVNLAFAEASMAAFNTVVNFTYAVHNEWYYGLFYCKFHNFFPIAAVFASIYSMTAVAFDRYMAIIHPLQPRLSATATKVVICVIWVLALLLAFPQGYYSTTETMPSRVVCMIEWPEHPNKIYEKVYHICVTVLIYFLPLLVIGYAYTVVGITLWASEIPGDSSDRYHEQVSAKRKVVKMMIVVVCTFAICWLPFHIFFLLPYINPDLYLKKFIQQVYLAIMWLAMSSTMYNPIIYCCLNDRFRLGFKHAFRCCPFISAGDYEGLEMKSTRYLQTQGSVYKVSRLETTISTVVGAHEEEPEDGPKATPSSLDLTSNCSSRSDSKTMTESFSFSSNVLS
pKi: −log10 of the molar value.
readout name: pKi

Q: Specify pKi for Cc1cc([C@@H]2CCCN2C)on1 , system Substance-P receptor (Homo sapiens).
Result: < 5.00

###

# subject of test: UniProt:P30542
# Sequence (P30542 whole entry): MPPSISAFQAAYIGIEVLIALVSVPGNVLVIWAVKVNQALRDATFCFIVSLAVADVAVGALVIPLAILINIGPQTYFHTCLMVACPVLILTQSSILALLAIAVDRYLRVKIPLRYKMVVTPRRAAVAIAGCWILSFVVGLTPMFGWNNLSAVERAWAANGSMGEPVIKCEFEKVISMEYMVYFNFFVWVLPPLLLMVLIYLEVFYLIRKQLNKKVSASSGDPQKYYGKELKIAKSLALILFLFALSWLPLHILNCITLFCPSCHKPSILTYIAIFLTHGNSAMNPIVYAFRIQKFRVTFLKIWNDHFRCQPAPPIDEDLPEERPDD
pKi: −log10 of the molar value.
readout name: pKi

Q: Determine from records and report pKi for Cc1cc([C@@H]2CCCN2C)on1
Result: < 5.00

###

# subject of test: GLRA1 protein (Homo sapiens)
# Sequence (Q14C71 whole entry): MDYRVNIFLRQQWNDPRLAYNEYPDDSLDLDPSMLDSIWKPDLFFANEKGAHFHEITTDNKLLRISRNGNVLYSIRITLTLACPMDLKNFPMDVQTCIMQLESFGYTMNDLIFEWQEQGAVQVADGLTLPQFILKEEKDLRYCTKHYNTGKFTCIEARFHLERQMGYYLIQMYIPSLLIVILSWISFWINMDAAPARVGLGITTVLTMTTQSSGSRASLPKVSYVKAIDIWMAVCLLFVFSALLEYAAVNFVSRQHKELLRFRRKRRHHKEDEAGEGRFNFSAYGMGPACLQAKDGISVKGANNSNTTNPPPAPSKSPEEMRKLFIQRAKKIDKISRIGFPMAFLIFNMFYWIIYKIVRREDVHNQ
pKi: −log10 of the molar value.
readout name: pKi

Q: Report pKi for Cc1cc([C@@H]2CCCN2C)on1 [ABT-418]
Result: < 5.00

###

# subject of test: D(2) dopamine receptor (Homo sapiens, UniProt P14416)
readout name: Ki

Q: Fetch value of Ki on D(2) dopamine receptor (Homo sapiens, UniProt P14416) for Cc1cc([C@@H]2CCCN2C)on1 .
Result: > 10 µM

###

# subject of test: UniProtKB Q01959
# Sequence (Q01959 whole entry): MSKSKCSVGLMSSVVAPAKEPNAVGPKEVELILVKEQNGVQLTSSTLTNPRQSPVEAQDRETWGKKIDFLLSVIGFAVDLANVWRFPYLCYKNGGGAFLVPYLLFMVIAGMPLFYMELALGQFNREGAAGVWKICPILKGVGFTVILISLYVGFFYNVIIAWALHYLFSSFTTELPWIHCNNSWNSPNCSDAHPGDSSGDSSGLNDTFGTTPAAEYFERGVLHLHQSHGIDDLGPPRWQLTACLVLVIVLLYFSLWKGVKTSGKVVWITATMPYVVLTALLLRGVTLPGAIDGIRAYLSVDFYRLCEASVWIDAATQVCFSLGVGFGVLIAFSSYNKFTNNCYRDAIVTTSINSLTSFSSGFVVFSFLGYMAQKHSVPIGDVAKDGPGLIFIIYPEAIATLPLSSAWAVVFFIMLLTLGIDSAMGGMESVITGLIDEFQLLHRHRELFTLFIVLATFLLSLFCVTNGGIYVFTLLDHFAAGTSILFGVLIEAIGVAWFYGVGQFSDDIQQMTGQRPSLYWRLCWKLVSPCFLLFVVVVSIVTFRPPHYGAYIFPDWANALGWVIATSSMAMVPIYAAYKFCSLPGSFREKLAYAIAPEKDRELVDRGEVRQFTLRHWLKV
readout name: Ki

Q: Supply reported Ki belonging to this molecule: Cc1cc([C@@H]2CCCN2C)on1
Result: > 10 µM

###

# subject of test: Protein kinase C (Drosophila melanogaster, UniProt P13678)
# Sequence (P13678 whole entry): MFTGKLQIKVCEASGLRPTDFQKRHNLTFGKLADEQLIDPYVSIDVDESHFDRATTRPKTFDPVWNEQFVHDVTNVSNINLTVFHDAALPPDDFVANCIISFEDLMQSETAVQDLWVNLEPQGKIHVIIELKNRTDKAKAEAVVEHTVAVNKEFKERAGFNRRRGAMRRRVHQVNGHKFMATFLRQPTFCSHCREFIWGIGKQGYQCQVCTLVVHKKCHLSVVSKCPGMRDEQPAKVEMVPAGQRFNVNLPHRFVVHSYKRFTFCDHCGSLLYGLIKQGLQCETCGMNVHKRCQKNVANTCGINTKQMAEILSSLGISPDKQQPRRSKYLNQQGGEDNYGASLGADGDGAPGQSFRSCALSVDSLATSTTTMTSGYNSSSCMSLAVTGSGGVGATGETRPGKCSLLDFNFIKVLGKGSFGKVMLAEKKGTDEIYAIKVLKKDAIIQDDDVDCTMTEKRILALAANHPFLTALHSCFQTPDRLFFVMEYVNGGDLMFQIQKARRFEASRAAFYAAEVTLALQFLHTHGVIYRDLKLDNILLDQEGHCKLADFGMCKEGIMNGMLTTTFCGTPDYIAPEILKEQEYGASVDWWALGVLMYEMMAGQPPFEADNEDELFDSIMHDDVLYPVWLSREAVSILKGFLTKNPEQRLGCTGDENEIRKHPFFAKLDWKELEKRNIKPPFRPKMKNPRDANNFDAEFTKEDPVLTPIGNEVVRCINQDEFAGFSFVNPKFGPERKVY
readout name: Ki

Q: State its Ki: Cc1cc([C@@H]2CCCN2C)on1 [ABT-418]
Result: > 10 µM

###

# subject of test: Histamine H1 receptor (Homo sapiens)
pKi: −log10 of the molar value.
readout name: pKi

Q: Report the value of pKi obtained on Histamine H1 receptor (Homo sapiens) for Cc1cc([C@@H]2CCCN2C)on1 .
Result: < 5.00

###

# subject of test: VIP peptides (Homo sapiens)
# Sequence (P01282 whole entry): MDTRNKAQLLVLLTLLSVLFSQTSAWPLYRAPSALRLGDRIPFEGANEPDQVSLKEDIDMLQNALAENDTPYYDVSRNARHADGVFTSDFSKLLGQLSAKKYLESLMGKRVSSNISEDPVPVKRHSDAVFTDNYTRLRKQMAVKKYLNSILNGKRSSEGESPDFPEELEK
pKi: −log10 of the molar value.
readout name: pKi

Q: Identify the reported pKi for the following entry. Cc1cc([C@@H]2CCCN2C)on1
Result: < 5.00

###

# subject of test: Solute carrier family 22 member 1 (Rattus norvegicus)
pKi: −log10 of the molar value.
readout name: pKi

Q: Given Cc1cc([C@@H]2CCCN2C)on1 , respond with its pKi.
Result: < 5.00

###

# subject of test: UniProt:P46098
# Sequence (P46098 whole entry): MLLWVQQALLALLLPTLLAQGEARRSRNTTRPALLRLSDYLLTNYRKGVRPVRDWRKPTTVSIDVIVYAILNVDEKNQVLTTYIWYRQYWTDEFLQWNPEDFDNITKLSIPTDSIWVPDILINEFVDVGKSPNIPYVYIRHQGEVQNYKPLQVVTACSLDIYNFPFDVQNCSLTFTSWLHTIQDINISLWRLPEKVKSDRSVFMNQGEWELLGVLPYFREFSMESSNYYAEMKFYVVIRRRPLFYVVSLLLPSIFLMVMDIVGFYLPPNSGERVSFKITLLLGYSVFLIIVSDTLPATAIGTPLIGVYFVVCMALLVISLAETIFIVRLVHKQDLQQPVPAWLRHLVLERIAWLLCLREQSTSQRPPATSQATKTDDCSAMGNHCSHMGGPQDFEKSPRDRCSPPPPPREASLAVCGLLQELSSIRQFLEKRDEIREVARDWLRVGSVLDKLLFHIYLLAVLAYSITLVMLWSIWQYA
readout name: Ki

Q: Using UniProt:P46098 as the test system, report measured Ki of Cc1cc([C@@H]2CCCN2C)on1 .
Result: > 10 µM

###

# subject of test: Glutamate receptor ionotropic, kainate 2 (Homo sapiens, UniProt Q13002)
# Sequence (Q13002 whole entry): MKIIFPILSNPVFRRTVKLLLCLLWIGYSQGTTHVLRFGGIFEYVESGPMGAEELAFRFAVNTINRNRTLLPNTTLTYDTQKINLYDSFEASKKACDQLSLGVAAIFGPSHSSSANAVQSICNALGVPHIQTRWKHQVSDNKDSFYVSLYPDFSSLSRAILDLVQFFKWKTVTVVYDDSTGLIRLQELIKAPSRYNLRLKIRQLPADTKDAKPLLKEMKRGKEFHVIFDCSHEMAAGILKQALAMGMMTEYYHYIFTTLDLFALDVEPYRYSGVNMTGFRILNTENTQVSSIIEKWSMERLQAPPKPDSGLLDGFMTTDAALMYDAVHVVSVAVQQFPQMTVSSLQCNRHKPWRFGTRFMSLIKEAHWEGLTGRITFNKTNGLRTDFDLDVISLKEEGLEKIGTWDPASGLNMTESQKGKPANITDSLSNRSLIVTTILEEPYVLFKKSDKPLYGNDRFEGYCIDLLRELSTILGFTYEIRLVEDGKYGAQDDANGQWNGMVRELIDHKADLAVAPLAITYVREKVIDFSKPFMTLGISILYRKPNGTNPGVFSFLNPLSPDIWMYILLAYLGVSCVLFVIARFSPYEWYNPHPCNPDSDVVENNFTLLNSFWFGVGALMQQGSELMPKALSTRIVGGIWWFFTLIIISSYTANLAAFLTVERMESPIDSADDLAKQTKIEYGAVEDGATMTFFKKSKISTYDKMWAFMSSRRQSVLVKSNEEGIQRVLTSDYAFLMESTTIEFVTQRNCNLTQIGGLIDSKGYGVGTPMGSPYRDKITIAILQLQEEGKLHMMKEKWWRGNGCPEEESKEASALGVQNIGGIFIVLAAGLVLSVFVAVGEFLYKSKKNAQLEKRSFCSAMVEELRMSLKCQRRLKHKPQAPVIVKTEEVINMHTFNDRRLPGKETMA
readout name: Ki

Q: Recall the reported Ki of Cc1cc([C@@H]2CCCN2C)on1 [ABT-418] on Glutamate receptor ionotropic, kainate 2 (Homo sapiens, UniProt Q13002) and write it down.
Result: > 10 µM

###

# subject of test: 5-hydroxytryptamine receptor 2A (Sus scrofa)
# Sequence (P50129 whole entry): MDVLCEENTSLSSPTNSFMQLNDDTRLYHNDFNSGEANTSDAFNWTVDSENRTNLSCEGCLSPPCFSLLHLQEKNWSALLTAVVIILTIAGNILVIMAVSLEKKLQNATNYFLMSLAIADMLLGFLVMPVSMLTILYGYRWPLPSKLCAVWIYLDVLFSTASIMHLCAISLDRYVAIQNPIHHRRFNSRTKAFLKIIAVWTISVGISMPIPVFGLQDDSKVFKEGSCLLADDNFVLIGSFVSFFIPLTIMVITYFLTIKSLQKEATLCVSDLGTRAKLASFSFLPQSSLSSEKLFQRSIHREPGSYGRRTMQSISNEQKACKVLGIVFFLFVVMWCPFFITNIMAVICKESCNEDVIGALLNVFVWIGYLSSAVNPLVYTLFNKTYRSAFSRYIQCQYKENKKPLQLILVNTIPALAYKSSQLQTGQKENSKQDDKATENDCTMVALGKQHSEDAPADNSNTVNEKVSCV
pKi: −log10 of the molar value.
readout name: pKi

Q: GET pKi | system: 5-hydroxytryptamine receptor 2A (Sus scrofa) | item: Cc1cc([C@@H]2CCCN2C)on1
Result: < 5.00

###

# subject of test: Outer capsid protein sigma-1 (Reovirus type 3 (strain Dearing), UniProt P03528)
# Sequence (P03528 whole entry): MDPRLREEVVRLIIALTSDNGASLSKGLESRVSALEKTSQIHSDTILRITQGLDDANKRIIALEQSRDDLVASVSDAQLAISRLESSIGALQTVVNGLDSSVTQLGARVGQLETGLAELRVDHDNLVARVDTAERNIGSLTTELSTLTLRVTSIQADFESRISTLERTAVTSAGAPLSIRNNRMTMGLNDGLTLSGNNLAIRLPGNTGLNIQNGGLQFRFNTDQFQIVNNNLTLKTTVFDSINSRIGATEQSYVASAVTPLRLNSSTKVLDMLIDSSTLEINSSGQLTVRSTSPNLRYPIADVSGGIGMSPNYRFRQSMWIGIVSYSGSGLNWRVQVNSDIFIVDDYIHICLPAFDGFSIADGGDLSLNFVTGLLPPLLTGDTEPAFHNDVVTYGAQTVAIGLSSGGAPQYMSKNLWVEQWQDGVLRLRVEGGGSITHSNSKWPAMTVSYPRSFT
readout name: Ki

Q: Give me measured Ki, please, for this compound: Cc1cc([C@@H]2CCCN2C)on1 [ABT-418]
Result: > 10 µM

###

# subject of test: Inositol-tetrakisphosphate 1-kinase (Homo sapiens, UniProt Q13572)
# Sequence (Q13572 whole entry): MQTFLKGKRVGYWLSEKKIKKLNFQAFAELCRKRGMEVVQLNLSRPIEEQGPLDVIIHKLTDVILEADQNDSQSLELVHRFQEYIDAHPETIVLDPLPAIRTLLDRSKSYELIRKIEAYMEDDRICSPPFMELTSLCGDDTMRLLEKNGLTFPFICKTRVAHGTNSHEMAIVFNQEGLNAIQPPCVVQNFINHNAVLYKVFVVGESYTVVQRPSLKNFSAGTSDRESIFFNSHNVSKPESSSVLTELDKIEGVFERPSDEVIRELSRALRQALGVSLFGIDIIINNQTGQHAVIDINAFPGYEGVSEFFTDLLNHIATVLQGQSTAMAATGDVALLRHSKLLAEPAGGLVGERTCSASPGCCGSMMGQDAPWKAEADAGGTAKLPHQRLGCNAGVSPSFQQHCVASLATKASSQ
readout name: Ki

Q: State the measured Ki (Inositol-tetrakisphosphate 1-kinase (Homo sapiens, UniProt Q13572)) of Cc1cc([C@@H]2CCCN2C)on1
Result: > 10 µM
